Target: HIRA-WB;UBN1-NM (human;human, UniProt P54198;Q9NPG3 1-473;1-584, |)
Assay: fluorescence polarization; no histones; 20 mM HEPES pH 7.5, 150 mM NaCl, 0.5 mM TCEP, 0.001% Tween-20, 1 mg/ml BSA; 10 nM probe; temperature not stated
Conditions: protein: recombinant;recombinant; tags: N-terminal His;; copies: 1;1; label: 5'-FAM on sense strand; blunt
PROPERTY NAME: pKd
The quantity pKd is defined as the negative base-10 logarithm of the molar concentration.

### Prompt Sample 10x ATGC 40-mer dsDNA (dsDNA) DNA 1: ATGCATGCATGCATGCATGCATGCATGCATGCATGCATGC DNA 2: GCATGCATGCATGCATGCATGCATGCATGCATGCATGCAT — what was its pKd?
### Response 6.43
